The measured values listed here are drawn from ChEMBL document CHEMBL2218924.

assay-target: Interleukin-1 receptor-associated kinase 4 (Homo sapiens)
experimental-parameters: at 1 µM
Use MET when the recorded residual activity is no lower than 60%; use NOT MET when it is lower.

| compound | assay-target | class-name |
| --- | --- | --- |
| C[C@@H](N)[C@H]1CC[C@H](C(=O)Nc2ccncc2)CC1 | Interleukin-1 receptor-associated kinase 4 (Homo sapiens) | MET |
| CCOc1cc2ncnc(Nc3cccc(Br)c3)c2cc1OCC | Interleukin-1 receptor-associated kinase 4 (Homo sapiens) | NOT MET |
| O=C(O)c1ccc2c3c1cccc3c(=O)n1c3ccccc3nc21 | Interleukin-1 receptor-associated kinase 4 (Homo sapiens) | MET |
| NC(=O)c1ccc2[nH]c(-c3ccc(Oc4ccc(Cl)cc4)cc3)nc2c1 | Interleukin-1 receptor-associated kinase 4 (Homo sapiens) | MET |
| CO[C@@H]1[C@H](N(C)C(=O)c2ccccc2)C[C@H]2O[C@]1(C)n1c3ccccc3c3c4c(c5c6ccccc6n2c5c31)C(=O)NC4 | Interleukin-1 receptor-associated kinase 4 (Homo sapiens) | NOT MET |
| CCN(CC)CCCCN1c2ccccc2Oc2ccc(Cl)cc21 | Interleukin-1 receptor-associated kinase 4 (Homo sapiens) | MET |
| O=Nc1c(-c2c(O)[nH]c3ccccc23)[nH]c2ccccc12 | Interleukin-1 receptor-associated kinase 4 (Homo sapiens) | NOT MET |
| CO[C@H]1[C@@H](OC)C[C@H](C)[C@@H](OC)C2=CC(=O)C=C(NC(=O)/C(C)=C/C=C/[C@H](OC)[C@@H](OC(N)=O)/C(C)=C/[C@@H]1C)C2=O | Interleukin-1 receptor-associated kinase 4 (Homo sapiens) | MET |
| Cc1nc(-c2ccccc2)c(-c2ccncc2)o1 | Interleukin-1 receptor-associated kinase 4 (Homo sapiens) | MET |
| O=c1c2ccccc2[nH]c(=S)n1CCN1CCC(=C(c2ccc(F)cc2)c2ccc(F)cc2)CC1 | Interleukin-1 receptor-associated kinase 4 (Homo sapiens) | MET |
| Cc1ccc(NC2=CC(=O)c3sc(C)nc3C2=O)cc1 | Interleukin-1 receptor-associated kinase 4 (Homo sapiens) | MET |
| COc1ccc(C(=O)Nc2sc3c(c2C(N)=O)CCCC3)cc1OC | Interleukin-1 receptor-associated kinase 4 (Homo sapiens) | NOT MET |
| Ic1cccc(CSc2nnc(-c3ccncc3)o2)c1 | Interleukin-1 receptor-associated kinase 4 (Homo sapiens) | NOT MET |
| O=C1Nc2ccc(Br)cc2/C1=C\c1cc2c([nH]1)CCCC2 | Interleukin-1 receptor-associated kinase 4 (Homo sapiens) | MET |
| O=[N+]([O-])c1ccc(-c2nc(-c3ccc(F)cc3)c(-c3ccncc3)[nH]2)cc1 | Interleukin-1 receptor-associated kinase 4 (Homo sapiens) | MET |
| CC(C)n1cnc2/c(=N/c3cccc(Cl)c3)nc(NCCO)[nH]c21 | Interleukin-1 receptor-associated kinase 4 (Homo sapiens) | NOT MET |
| O=C1Nc2ccccc2/C1=C1/Nc2ccccc2/C1=N\OCCC(O)CO (stereo not drawn) | Interleukin-1 receptor-associated kinase 4 (Homo sapiens) | NOT MET |
| O=C1Nc2cc(Br)ccc2/C1=C1/Nc2ccccc2/C1=N\O | Interleukin-1 receptor-associated kinase 4 (Homo sapiens) | NOT MET |
